All values here come from ChEMBL document CHEMBL1133995.

# target-under-test: P2Y purinoceptor 2 (Homo sapiens, UniProt P41231)
# Sequence (P41231 whole entry): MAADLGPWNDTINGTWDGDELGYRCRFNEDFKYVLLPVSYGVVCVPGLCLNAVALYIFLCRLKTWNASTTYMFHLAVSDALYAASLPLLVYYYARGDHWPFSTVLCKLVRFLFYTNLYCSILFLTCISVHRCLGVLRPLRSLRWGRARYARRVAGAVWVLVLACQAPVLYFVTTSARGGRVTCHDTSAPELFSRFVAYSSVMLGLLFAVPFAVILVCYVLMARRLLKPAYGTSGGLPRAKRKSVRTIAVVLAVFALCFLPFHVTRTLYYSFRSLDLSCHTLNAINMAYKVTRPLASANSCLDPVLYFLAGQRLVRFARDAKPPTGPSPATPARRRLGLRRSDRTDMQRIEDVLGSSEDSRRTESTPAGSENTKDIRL
# protocol-description: Agonist activity evaluated as change in the level of cytosolic calcium in 1321N astrocytoma cells infected with a retrovirus encoding the human P2Y2 receptor
# Assay type: functional, cell-based
Flag rule - EC50 less than 8 µM flags true (1); the remaining entries get false (0).

| compound | group-label |
| --- | --- |
| O=c1ccn([C@@H]2O[C@H](COP(=O)(O)OP(=O)(O)OP(=O)(O)OP(=O)(O)OP(=O)(O)OP(=O)(O)OC[C@@H]3O[C@H](n4ccc(=O)[nH]c4=O)[C@@H](O)[C@H]3O)[C@@H](O)[C@H]2O)c(=O)[nH]1 | false (0) |
| O=c1ccn([C@@H]2O[C@H](COP(=O)(O)OP(=O)(O)OP(=O)(O)O)[C@@H](O)[C@H]2O)c(=O)[nH]1 [URIDINE TRIPHOSPHATE] | true (1) |
| O=c1ccn([C@@H]2O[C@H](COP(=O)(O)OP(=O)(O)OP(=O)(O)OP(=O)(O)OP(=O)(O)OC[C@@H]3O[C@H](n4ccc(=O)[nH]c4=O)[C@@H](O)[C@H]3O)[C@@H](O)[C@H]2O)c(=O)[nH]1 | true (1) |
| O=c1ccn([C@@H]2O[C@H](COP(=O)(O)OP(=O)(O)O)[C@@H](O)[C@H]2O)c(=O)[nH]1 [URIDINE_DIPHOSPHATE] | false (0) |
| O=c1ccn([C@@H]2O[C@H](COP(=O)(O)OP(=O)(O)OP(=O)(O)OP(=O)(O)OP(=O)(O)OP(=O)(O)OP(=O)(O)OC[C@@H]3O[C@H](n4ccc(=O)[nH]c4=O)[C@@H](O)[C@H]3O)[C@@H](O)[C@H]2O)c(=O)[nH]1 | false (0) |
| O=c1ccn([C@@H]2O[C@H](COP(=O)(O)OP(=O)(O)OP(=O)(O)OC[C@@H]3O[C@H](n4ccc(=O)[nH]c4=O)[C@@H](O)[C@H]3O)[C@@H](O)[C@H]2O)c(=O)[nH]1 | false (0) |

* * *

# target-under-test: UniProtKB P51582
# Sequence (P51582 whole entry): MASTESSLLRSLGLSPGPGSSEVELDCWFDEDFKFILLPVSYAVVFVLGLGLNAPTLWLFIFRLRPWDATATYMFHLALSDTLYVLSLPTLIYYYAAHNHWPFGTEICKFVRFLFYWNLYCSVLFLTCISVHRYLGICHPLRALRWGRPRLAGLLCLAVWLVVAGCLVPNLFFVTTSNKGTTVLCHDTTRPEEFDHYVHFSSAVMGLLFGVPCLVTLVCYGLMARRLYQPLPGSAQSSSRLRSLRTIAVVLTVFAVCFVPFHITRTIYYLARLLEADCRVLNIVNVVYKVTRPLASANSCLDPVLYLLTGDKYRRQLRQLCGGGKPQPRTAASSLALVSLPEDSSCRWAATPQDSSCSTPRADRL
# protocol-description: Agonist activity evaluated as change in the level of cytosolic calcium in 1321N astrocytoma cells infected with a retrovirus encoding the human P2Y4 receptor
# Assay type: functional, cell-based
Listed here are compounds together with their documented EC50.
measured-property: EC50

| molecule | measured-property | observed-value |
| --- | --- | --- |
| O=c1ccn([C@@H]2O[C@H](COP(=O)(O)OP(=O)(O)OP(=O)(O)OP(=O)(O)OP(=O)(O)OP(=O)(O)OC[C@@H]3O[C@H](n4ccc(=O)[nH]c4=O)[C@@H](O)[C@H]3O)[C@@H](O)[C@H]2O)c(=O)[nH]1 | EC50 | > 30 µM |
| O=c1ccn([C@@H]2O[C@H](COP(=O)(O)OP(=O)(O)OP(=O)(O)OP(=O)(O)OP(=O)(O)OP(=O)(O)OP(=O)(O)OC[C@@H]3O[C@H](n4ccc(=O)[nH]c4=O)[C@@H](O)[C@H]3O)[C@@H](O)[C@H]2O)c(=O)[nH]1 | EC50 | > 30 µM |
| O=c1ccn([C@@H]2O[C@H](COP(=O)(O)OP(=O)(O)OP(=O)(O)OP(=O)(O)OP(=O)(O)OC[C@@H]3O[C@H](n4ccc(=O)[nH]c4=O)[C@@H](O)[C@H]3O)[C@@H](O)[C@H]2O)c(=O)[nH]1 | EC50 | > 20 µM |
